Parameter: switch fluorescence ratio. Scope: all listed entries.
# System: ATP;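 note: ATP exposure 15 min at 22 °C before imaging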
# protocolDescription: switch fluorescence ratio, 500 uM ATP over buffer (Cy3 cluster intensity, sum of 5 cycles each) (fold (ratio)); higher = stronger signal-on switching upon ATP binding; sequences stand for … in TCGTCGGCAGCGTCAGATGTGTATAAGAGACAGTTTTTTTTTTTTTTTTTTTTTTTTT…TC
# conditionDetails: aptamer strand: ATP DNA aptamer (quencher-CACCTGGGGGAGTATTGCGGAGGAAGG + anchor), 100 nM annealed; ATP concentration: 500 uM
Please reply with the number alone, leaving off any unit.

[[record]]
primarysequence = "TTAGTGATTA"
testedtarget = "ATP"
measured = 0.996

[[record]]
primarysequence = "TTCGGTACTG"
testedtarget = "ATP"
measured = 1.01

[[record]]
primarysequence = "TCTGATGGGG"
testedtarget = "ATP"
measured = 1

[[record]]
primarysequence = "TTGAGCTAGG"
testedtarget = "ATP"
measured = 1.01

[[record]]
primarysequence = "GGCATCCAGG"
testedtarget = "ATP"
measured = 1.38

[[record]]
primarysequence = "AGCCTGGGCT"
testedtarget = "ATP"
measured = 0.99

[[record]]
primarysequence = "CTCTGTGACG"
testedtarget = "ATP"
measured = 1.03

[[record]]
primarysequence = "AGGTATGGCC"
testedtarget = "ATP"
measured = 1.04

[[record]]
primarysequence = "TATGGGGGAT"
testedtarget = "ATP"
measured = 1.03

[[record]]
primarysequence = "GGGGGTCATC"
testedtarget = "ATP"
measured = 0.971


Tell us which switch fluorescence ratio value is on record for TTCAGGGGTC
1.02

Tell us which switch fluorescence ratio value is on record for GGATGGATGG
0.993

Tell us which switch fluorescence ratio value is on record for CGGGGGTTGT
0.963

Tell us which switch fluorescence ratio value is on record for CGTAGCGGTA
1.53

Tell us which switch fluorescence ratio value is on record for CTGTTATTTT
0.974

Tell us which switch fluorescence ratio value is on record for ATTGATTGCG
0.989

---

# System: ATP;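 note: ATP exposure 15 min at 22 °C before imaging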
# protocolDescription: switch fluorescence ratio, 500 uM ATP over buffer (Cy3 cluster intensity, sum of 5 cycles each) (fold (ratio)); higher = stronger signal-on switching upon ATP binding; sequences stand for … in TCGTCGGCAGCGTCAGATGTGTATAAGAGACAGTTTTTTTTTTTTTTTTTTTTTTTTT…TC
# conditionDetails: aptamer strand: ATP DNA aptamer (quencher-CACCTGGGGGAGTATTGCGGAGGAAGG + anchor), 100 nM annealed; ATP concentration: 500 uM
measurementKind: switch fluorescence ratio

Study these solved cases before continuing.
[[record]]
primarysequence = "AGTAAAGTCT"
measured = 1.04

[[record]]
primarysequence = "GATATGGGTA"
measured = 1.02

[[record]]
primarysequence = "TGAGCTAAAT"
measured = 1.18

[[record]]
primarysequence = "GATTGAGCTG"
measured = 1.02


Tell us which switch fluorescence ratio value is on record for TCTTATCGTT
0.964

Tell us which switch fluorescence ratio value is on record for AGTGGATTGT
1.01

Tell us which switch fluorescence ratio value is on record for GCAGTACTTT
1.5

Tell us which switch fluorescence ratio value is on record for TTTCTCAAAA
1.03

Tell us which switch fluorescence ratio value is on record for AGCAATTTCG
1.42

---

# Test system: ATP;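 note: ATP exposure 15 min at 22 °C before imaging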
# protocolDescription: switch fluorescence ratio, 500 uM ATP over buffer (Cy3 cluster intensity, sum of 5 cycles each) (fold (ratio)); higher = stronger signal-on switching upon ATP binding; sequences stand for … in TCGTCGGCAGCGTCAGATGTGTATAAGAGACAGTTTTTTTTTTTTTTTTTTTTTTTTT…TC
# conditionDetails: aptamer strand: ATP DNA aptamer (quencher-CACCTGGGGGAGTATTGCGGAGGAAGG + anchor), 100 nM annealed; ATP concentration: 500 uM
measurementKind: switch fluorescence ratio

Study these solved cases before continuing.
[[record]]
primarysequence = "TTGGAAAAAG"
testedtarget = "ATP"
measured = 1.1

[[record]]
primarysequence = "GGTCGGTAGA"
testedtarget = "ATP"
measured = 0.998

[[record]]
primarysequence = "TGAGAGGTTT"
testedtarget = "ATP"
measured = 0.982

[[record]]
primarysequence = "AGTCATTATG"
testedtarget = "ATP"
measured = 1

[[record]]
primarysequence = "GCTAGCCATT"
testedtarget = "ATP"
measured = 0.978

[[record]]
primarysequence = "CGAACAGCGC"
testedtarget = "ATP"
measured = 1.01

[[record]]
primarysequence = "CGGGGAGTTT"
testedtarget = "ATP"
measured = 0.978

[[record]]
primarysequence = "CGGTTTCCGC"
testedtarget = "ATP"
measured = 1.04


Tell us which switch fluorescence ratio value is on record for AGAAGCCCAC
1.09

Tell us which switch fluorescence ratio value is on record for GCTGAATTGG
1.04

Tell us which switch fluorescence ratio value is on record for TTACAATTTG
1.01

---

# Tested on: ATP;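 note: ATP exposure 15 min at 22 °C before imaging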
# protocolDescription: switch fluorescence ratio, 500 uM ATP over buffer (Cy3 cluster intensity, sum of 5 cycles each) (fold (ratio)); higher = stronger signal-on switching upon ATP binding; sequences stand for … in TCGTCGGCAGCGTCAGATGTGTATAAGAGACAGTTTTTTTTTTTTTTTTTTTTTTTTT…TC
# conditionDetails: aptamer strand: ATP DNA aptamer (quencher-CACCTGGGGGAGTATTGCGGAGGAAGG + anchor), 100 nM annealed; ATP concentration: 500 uM
measurementKind: switch fluorescence ratio
Please reply with the number alone, leaving off any unit.

Study these solved cases before continuing.
[[record]]
primarysequence = "AGGATTTCGT"
measured = 1.01

[[record]]
primarysequence = "GAAGTACTAT"
measured = 1.2


Tell us which switch fluorescence ratio value is on record for AAGTCGGGAC
1.08

Tell us which switch fluorescence ratio value is on record for AGAATTATAT
0.973

Tell us which switch fluorescence ratio value is on record for TTGGTGCTGT
1.01

Tell us which switch fluorescence ratio value is on record for GGGATTTTCT
1.01

---

Parameter: switch fluorescence ratio. Scope: all listed entries.
# System: ATP;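 note: ATP exposure 15 min at 22 °C before imaging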
# protocolDescription: switch fluorescence ratio, 500 uM ATP over buffer (Cy3 cluster intensity, sum of 5 cycles each) (fold (ratio)); higher = stronger signal-on switching upon ATP binding; sequences stand for … in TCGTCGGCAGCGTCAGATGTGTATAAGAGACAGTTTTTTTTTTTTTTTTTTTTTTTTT…TC
# conditionDetails: aptamer strand: ATP DNA aptamer (quencher-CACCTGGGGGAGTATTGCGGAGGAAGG + anchor), 100 nM annealed; ATP concentration: 500 uM
Please reply with the number alone, leaving off any unit.

[[record]]
primarysequence = "AAGGGGGAGG"
testedtarget = "ATP"
measured = 0.982

[[record]]
primarysequence = "TGCGTAAGGC"
testedtarget = "ATP"
measured = 1.18

[[record]]
primarysequence = "GTTTGTTTTT"
testedtarget = "ATP"
measured = 0.976


// fetch switch fluorescence ratio for ACACTGCTTA ; system: ATP;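 note: ATP exposure 15 min at 22 °C before imaging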
1.02

// fetch switch fluorescence ratio for ATTGGATTCA ; system: ATP;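 note: ATP exposure 15 min at 22 °C before imaging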
1.02

// fetch switch fluorescence ratio for TTTGGCCGGT ; system: ATP;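 note: ATP exposure 15 min at 22 °C before imaging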
1.04

// fetch switch fluorescence ratio for GCGACAGGGT ; system: ATP;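 note: ATP exposure 15 min at 22 °C before imaging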
1.02

// fetch switch fluorescence ratio for AACTTGAGAA ; system: ATP;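 note: ATP exposure 15 min at 22 °C before imaging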
1.01

// fetch switch fluorescence ratio for ATCGGAAGCG ; system: ATP;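 note: ATP exposure 15 min at 22 °C before imaging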
1.03

// fetch switch fluorescence ratio for GGGGGTTTGG ; system: ATP;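 note: ATP exposure 15 min at 22 °C before imaging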
0.991

// fetch switch fluorescence ratio for CCAATTTGCT ; system: ATP;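 note: ATP exposure 15 min at 22 °C before imaging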
1.02

// fetch switch fluorescence ratio for GGGTAGCTAG ; system: ATP;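 note: ATP exposure 15 min at 22 °C before imaging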
1.04

// fetch switch fluorescence ratio for TAGTATTACC ; system: ATP;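 note: ATP exposure 15 min at 22 °C before imaging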
0.994

// fetch switch fluorescence ratio for GGATTGTTGT ; system: ATP;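 note: ATP exposure 15 min at 22 °C before imaging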
0.994

// fetch switch fluorescence ratio for TTGTCGTCGC ; system: ATP;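 note: ATP exposure 15 min at 22 °C before imaging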
0.989

// fetch switch fluorescence ratio for TAGGGTTTTT ; system: ATP;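 note: ATP exposure 15 min at 22 °C before imaging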
1.03

// fetch switch fluorescence ratio for TCTATAAGGA ; system: ATP;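 note: ATP exposure 15 min at 22 °C before imaging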
1.01

// fetch switch fluorescence ratio for GGTGGCGGGG ; system: ATP;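 note: ATP exposure 15 min at 22 °C before imaging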
0.987

// fetch switch fluorescence ratio for TTCAATCCGT ; system: ATP;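 note: ATP exposure 15 min at 22 °C before imaging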
1.17

// fetch switch fluorescence ratio for AAGAAACGGG ; system: ATP;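 note: ATP exposure 15 min at 22 °C before imaging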
1.03

// fetch switch fluorescence ratio for TGCGGCAATT ; system: ATP;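 note: ATP exposure 15 min at 22 °C before imaging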
1.09

// fetch switch fluorescence ratio for TGATGAATGG ; system: ATP;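 note: ATP exposure 15 min at 22 °C before imaging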
0.99

---

# Tested on: ATP;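 note: ATP exposure 15 min at 22 °C before imaging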
# protocolDescription: switch fluorescence ratio, 500 uM ATP over buffer (Cy3 cluster intensity, sum of 5 cycles each) (fold (ratio)); higher = stronger signal-on switching upon ATP binding; sequences stand for … in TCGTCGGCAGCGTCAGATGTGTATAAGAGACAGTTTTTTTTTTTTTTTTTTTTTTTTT…TC
# conditionDetails: aptamer strand: ATP DNA aptamer (quencher-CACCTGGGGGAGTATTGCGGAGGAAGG + anchor), 100 nM annealed; ATP concentration: 500 uM
Parameter: switch fluorescence ratio. Scope: all listed entries.
Please reply with the number alone, leaving off any unit.

Study these solved cases before continuing.
[[record]]
primarysequence = "TAGGGGTAGC"
measured = 0.985

[[record]]
primarysequence = "AAGAGGCATG"
measured = 0.971

[[record]]
primarysequence = "ACGTTGCAGA"
measured = 1.01

[[record]]
primarysequence = "TGTGACTAAG"
measured = 0.979

[[record]]
primarysequence = "GGGTTTATAT"
measured = 0.997

[[record]]
primarysequence = "ATTAAAAAAG"
measured = 0.985

[[record]]
primarysequence = "GAGATGTAGG"
measured = 1

[[record]]
primarysequence = "TCATTTCGCC"
measured = 1.07

[[record]]
primarysequence = "TTGCAATTAT"
measured = 1.26

[[record]]
primarysequence = "ATGGGGTCGA"
measured = 1


Tell us which switch fluorescence ratio value is on record for ACCAGTCTGG
1.01

Tell us which switch fluorescence ratio value is on record for TATTTTTAGG
1

Tell us which switch fluorescence ratio value is on record for GTGGTAAGTT
0.942
